Target: Sodium-dependent noradrenaline transporter (Homo sapiens)
Sequence (P23975 whole entry): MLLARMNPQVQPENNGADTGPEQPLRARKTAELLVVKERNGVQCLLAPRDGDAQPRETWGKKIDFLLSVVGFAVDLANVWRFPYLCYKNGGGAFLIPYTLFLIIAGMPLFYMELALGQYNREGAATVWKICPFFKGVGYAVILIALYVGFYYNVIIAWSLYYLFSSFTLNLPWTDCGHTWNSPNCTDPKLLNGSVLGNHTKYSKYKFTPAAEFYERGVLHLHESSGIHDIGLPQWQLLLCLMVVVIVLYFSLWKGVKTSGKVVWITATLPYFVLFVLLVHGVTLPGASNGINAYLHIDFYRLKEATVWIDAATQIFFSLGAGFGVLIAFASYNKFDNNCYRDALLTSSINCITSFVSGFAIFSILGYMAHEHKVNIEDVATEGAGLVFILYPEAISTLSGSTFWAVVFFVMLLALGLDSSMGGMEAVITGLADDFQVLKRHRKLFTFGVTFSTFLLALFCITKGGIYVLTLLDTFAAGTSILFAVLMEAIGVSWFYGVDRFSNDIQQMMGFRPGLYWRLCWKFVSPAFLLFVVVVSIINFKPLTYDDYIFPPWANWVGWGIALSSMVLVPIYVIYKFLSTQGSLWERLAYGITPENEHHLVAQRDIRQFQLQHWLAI
Test Conditions: HEK293, at 0.1 µM
Endpoint: inhibition (%)
Enter your answer as a number in %; do not include the unit.

Known inhibition results, listed for orientation:
Molecule | inhibition (%)
Fc1cc(C(Oc2ccccc2)C2CNC2)ccc1Cl (configuration not stated) | 76
COC(c1ccccc1)C1CNC1 (configuration not stated) | 1.5
c1ccc(OC(c2ccccc2)C2CNC2)cc1 (configuration not stated) | 18
CCCOC(c1ccc2ccccc2c1)C1CNC1.Cl (configuration not stated) | 87
Fc1ccc(C(OCCN2CCN(CCCc3ccccc3)CC2)c2ccc(F)cc2)cc1 | -5.9

According to the records, this molecule COC(c1ccc(Cl)cc1)C1CNC1 (configuration not stated) displays inhibition of 7.7

According to the records, this molecule c1ccc(COC(c2ccccc2)C2CNC2)cc1 (configuration not stated) displays inhibition of 9.4
